- Target: human CRTH2 (Homo sapiens)
- Construct: Full-length human CRTH2 cDNA was generated by polymerase chain reaction (PCR); expressed in transfected cells; host or cells: 293 cells stably transfected with pHLT124 (pCDNA3.1(+)), named 293(124)
- Sequence (Q9Y5Y4 1-395): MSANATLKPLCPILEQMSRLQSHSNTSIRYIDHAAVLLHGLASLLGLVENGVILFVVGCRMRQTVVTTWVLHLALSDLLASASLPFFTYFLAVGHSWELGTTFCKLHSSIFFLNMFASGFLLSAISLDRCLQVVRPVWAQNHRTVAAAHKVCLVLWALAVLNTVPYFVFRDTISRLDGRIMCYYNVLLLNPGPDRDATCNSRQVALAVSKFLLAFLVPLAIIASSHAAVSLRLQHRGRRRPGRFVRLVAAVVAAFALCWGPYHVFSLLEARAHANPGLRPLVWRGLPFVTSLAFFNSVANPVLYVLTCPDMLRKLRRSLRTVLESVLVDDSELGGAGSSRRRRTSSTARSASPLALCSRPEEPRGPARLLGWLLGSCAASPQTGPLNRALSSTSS
- Method Notes: Human CRTH2 binding assay (3H-PGD2, 293(124) cells)
- Test Conditions: buffer; read-out: CRTH2 IC50 (nM) Buffer
Observed Property: IC50 (nM)

Observe how each entry below is paired with its result.
INSERT INTO results (molecule, target, observed_property, unit_string, readout_number) VALUES
  ('CCC(C)(C)NC(=O)c1ccc(Oc2cc(F)c(CC(=O)O)cc2Cl)c(NS(=O)(=O)c2ccc(C)cc2Cl)c1', 'human CRTH2 (Homo sapiens)', 'IC50', 'nM', 4.9),
  ('CC(C)(C)NC(=O)c1ccc(Oc2cc(F)c(CC(=O)O)cc2Cl)c(NS(=O)(=O)c2ccc(C3CC3)cc2Cl)c1 [drawing 69]', 'human CRTH2 (Homo sapiens)', 'IC50', 'nM', 3),
  ('CCNC(=O)c1ccc(Oc2ccc(CC(=O)O)cc2)c(NS(=O)(=O)c2ccc(Cl)cc2Cl)c1 [reference compound]', 'human CRTH2 (Homo sapiens)', 'IC50', 'nM', 4),
  ('CCNC(=O)c1ccc(Oc2ccc(CC(=O)O)cc2Cl)c(NS(=O)(=O)c2ccc(Cl)cc2Cl)c1 [reference compound]', 'human CRTH2 (Homo sapiens)', 'IC50', 'nM', 2.2);

A: CCC(C)(C)NC(=O)c1ccc(Oc2cc(F)c(CC(=O)O)cc2Cl)c(NS(=O)(=O)c2ccc(C(F)(F)F)cc2Cl)c1
B: CC1(NC(=O)c2ccc(Oc3cc(F)c(CC(=O)O)cc3Cl)c(NS(=O)(=O)c3ccc(C4CC4)cc3Cl)c2)CCC1
Task item: Given A and given B , which shows the smaller recorded IC50? Field: selected label. Fill in the label of the entry you choose.
Reply: B
